molecular target: Matrix metalloproteinase-9 (Homo sapiens)
Sequence (P14780 whole entry): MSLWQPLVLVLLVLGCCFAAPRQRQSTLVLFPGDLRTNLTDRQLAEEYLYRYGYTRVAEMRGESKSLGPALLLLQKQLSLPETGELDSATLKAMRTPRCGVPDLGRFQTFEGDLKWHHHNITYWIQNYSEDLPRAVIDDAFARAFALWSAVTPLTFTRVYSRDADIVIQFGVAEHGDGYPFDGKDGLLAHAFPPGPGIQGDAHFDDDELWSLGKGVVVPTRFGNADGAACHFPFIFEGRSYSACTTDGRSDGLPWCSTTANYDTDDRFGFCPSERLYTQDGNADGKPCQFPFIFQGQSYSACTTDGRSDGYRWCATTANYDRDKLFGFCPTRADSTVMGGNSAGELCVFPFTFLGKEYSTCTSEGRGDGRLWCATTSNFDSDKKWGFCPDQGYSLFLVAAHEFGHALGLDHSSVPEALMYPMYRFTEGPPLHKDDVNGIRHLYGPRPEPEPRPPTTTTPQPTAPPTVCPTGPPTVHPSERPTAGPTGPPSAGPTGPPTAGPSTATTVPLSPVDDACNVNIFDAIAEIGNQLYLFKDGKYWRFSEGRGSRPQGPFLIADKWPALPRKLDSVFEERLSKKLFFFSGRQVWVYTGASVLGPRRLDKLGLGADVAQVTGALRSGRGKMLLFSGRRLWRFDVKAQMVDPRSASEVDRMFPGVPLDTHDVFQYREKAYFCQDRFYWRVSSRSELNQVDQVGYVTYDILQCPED
Endpoint label: pIC50
Worth noting: pIC50 values are minus log10 of concentrations stated in mol/L.

[ask] # pIC50 lookup, item Cc1ccc2nc(-c3cccc(NC(=O)CCc4ccccc4)c3)[nH]c2c1
[reply] 4.55

----------
assay: Selectivity index, ratio of IC50 for antiproliferative activity against human L02 cells to IC50 for antiproliferative activity against human A549 cells; type: toxicity, cell-based; details: L02 cells and A549 cells, read-out: Ratio IC50
Endpoint label: selectivity ratio

[ask] # selectivity ratio lookup, item CC(=O)O[C@H]1C(=O)[C@@]2(C)[C@H]([C@H](OC(=O)c3ccccc3)[C@]3(O)C[C@H](OC(=O)[C@H](O)[C@@H](NC(=O)c4ccccc4)c4ccccc4)C(C)=C1C3(C)C)[C@]1(OC(C)=O)CO[C@@H]1C[C@@H]2O
[reply] 0.87

[ask] # selectivity ratio lookup, item COc1ccc(/C=C/C(=O)c2cc(OC)c(OC)c(OC)c2)cc1O
[reply] 2.4
